Measured values drawn from PubChem BioAssay for this set.

target: PEG-3 (UniProt Q6IN02); experiment: Peg3 promoter luciferase inhibitors, potency, dose response, cell-based, HeLa, CREF/GAPDH counter-screen panel (AID 624167); settings: CREF/GAPDH counter-screens; HeLa PEG-Prom luciferase reporter, overnight, run 2, dose range 1, at 100 µM (top of the series) unless noted
Sequence (Q6IN02 whole entry, looked up): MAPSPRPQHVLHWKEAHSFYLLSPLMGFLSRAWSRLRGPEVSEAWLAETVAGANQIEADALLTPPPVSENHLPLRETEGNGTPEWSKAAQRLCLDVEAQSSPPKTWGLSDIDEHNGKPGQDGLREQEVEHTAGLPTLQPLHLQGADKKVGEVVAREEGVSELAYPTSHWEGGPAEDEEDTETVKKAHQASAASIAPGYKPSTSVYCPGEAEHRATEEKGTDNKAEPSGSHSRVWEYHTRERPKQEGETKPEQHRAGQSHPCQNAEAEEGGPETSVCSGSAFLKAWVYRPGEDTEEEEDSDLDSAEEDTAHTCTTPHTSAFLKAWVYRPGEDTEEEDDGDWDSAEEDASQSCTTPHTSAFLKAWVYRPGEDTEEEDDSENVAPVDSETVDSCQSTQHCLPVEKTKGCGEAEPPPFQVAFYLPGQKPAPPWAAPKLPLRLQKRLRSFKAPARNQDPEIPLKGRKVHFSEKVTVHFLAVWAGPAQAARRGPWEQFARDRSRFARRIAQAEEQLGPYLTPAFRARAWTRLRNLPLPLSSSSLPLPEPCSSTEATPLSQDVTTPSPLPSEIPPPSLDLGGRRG
Exercise: for every item that follows, state its recorded inhibition.
Numbers only, in %.

For each listed entry, give its inhibition.
1. CCN1CCN(C(c2ccc(C(F)(F)F)cc2)c2ccc3cccnc3c2O)CC1 (stereo not given)
2. CN(C)S(=O)(=O)c1ccc(-c2csc(N/N=C/c3ccc(O)cc3)n2)cc1
3. COc1ccc(C(O)(CC(C)C)C(CN2CCOCC2)c2ccccc2)cc1 (stereo not given)

Out:
[99.4, 101, 100]

For each listed entry, give its inhibition.
1. Cc1ccc(S(=O)(=O)N2CCCCC2)cc1C(=O)N(C)CC(=O)Nc1ccc(Cl)c(C(F)(F)F)c1
2. Cc1cccc(N2CCN(C(=O)C3CCN(c4ncnc5c4nc4n5CCCCC4)CC3)CC2)c1C
3. COc1ccc(C23CC4CC(CC(C4)C2)C3)cc1C(=O)NCCN(C)C

Out:
1. 60.6
2. 90.7
3. 102

For each listed entry, give its inhibition.
1. CC1CCCCN1CCNC(=O)c1ccc2c(=O)n(Cc3ccc(Cl)cc3)c(=S)[nH]c2c1 (stereo not given)
2. CCCC(=O)NC(c1cccc([N+](=O)[O-])c1)c1ccc2cccnc2c1O (stereo not given)

Out:
1. 99.1
2. 98.9

For each listed entry, give its inhibition.
1. COc1cccc(NC(=O)CN(C)C(=O)c2cc(-c3ccc(F)cc3)nc3ccccc23)c1
2. CCn1c(C)cc(C(=O)COC(=O)c2ccccc2[N+](=O)[O-])c1C

Out:
1. 99.1
2. 99
